Tested on: HCV replicon 1AQ30D
protocolDescription: microbe, parasite or virus in culture
Format: cell-based, Hepatitis C virus (HCV)
conditionInfo: Hepatitis C virus, read-out: 1A Q30D IC50 (nM), replicon 1AQ30D; Replicon Assay B
Give IC50 for every item shown.
Answers are plain numbers, in nM.

Solved entries:
compound: COC(=O)N[C@@H](Cc1ccccc1)C(=O)N1CCC[C@H]1c1ncc(-c2ccc3c(c2)OC(c2ccc(-c4ccc(NC(=O)CCCC[C@@H]5SC[C@@H]6NC(=O)N[C@@H]65)cc4)s2)n2c-3cc3cc(-c4cnc([C@@H]5CCCN5C(=O)[C@H](Cc5ccccc5)NC(=O)OC)[nH]4)ccc32)[nH]1 (single isomer, unassigned)
IC50 (nM): 16.7
--
compound: COC(=O)N[C@H](C(=O)N1CCC[C@H]1c1ncc(-c2cc(F)c3c(c2)OC(c2ccc(C4CC4)s2)n2c-3cc3cc(-c4cnc([C@@H]5CCCN5C(=O)[C@@H](NC(=O)OC)C(C)C)[nH]4)ccc32)[nH]1)C(C)C (single isomer, unassigned)
IC50 (nM): 28.3

Prompt line: Entry under review: CCc1ccc(C2Oc3cc(-c4cnc(C5CCCN5C(=O)C(NC(=O)OC)C5C[C@@H](C)O[C@@H](C)C5)[nH]4)ccc3-c3cc4c(F)c(-c5cnc([C@@H]6CCCN6C(=O)[C@@H](NC(=O)OC)C(C)C)[nH]5)ccc4n32)s1 (single isomer, unassigned) . Reported IC50?
Response line: 0.848

----------
Give log10 IC50 for every item shown.
Test system: HCV replicon 1B
protocolDescription: microbe, parasite or virus in culture
Format: cell-based, Hepatitis C virus (HCV)
conditionInfo: Hepatitis C virus, HCV replicon 1B; Replicon Assay B
Hey, these are logged values: log10 of IC50, pM being the unit before logging.

Solved entries:
compound: COC(=O)N[C@H](C(=O)N1CCC[C@H]1c1ncc(-c2cc(F)c3c(c2)OC(c2ccc(C4CC4)s2)n2c-3cc3cc(-c4cnc([C@@H]5CCCN5C(=O)[C@@H](NC(=O)OC)C5CC6(COC6)C5)[nH]4)ccc32)[nH]1)C(C)C (mixture of isomers) [Compound 531]
log10 IC50: 3.11

compound: COC(=O)NC(C(=O)N1CCC[C@H]1c1ncc(-c2ccc3c(c2)cc2n3C(c3ccc(C(F)(F)F)s3)Oc3cc(-c4cnc([C@@H]5CCCN5C(=O)[C@@H](NC(=O)OC)C(C)C)[nH]4)cc(F)c3-2)[nH]1)C1C[C@@H](C)O[C@@H](C)C1 (some centres unmarked) [Compound 650]
log10 IC50: 0.15

compound: COCc1ccc(C2Oc3cc(-c4cnc([C@@H]5CCCN5C(=O)[C@@H](NC(=O)OC)C(C)C)[nH]4)cc(F)c3-c3cc4cc(-c5c[nH]c([C@@H]6CCCN6C(=O)[C@@H](NC(=O)OC)C(C)C)n5)ccc4n32)s1 (single isomer, unassigned) [Compound 513]
log10 IC50: 0.63

Below are 5 compounds. Give each one its log10 IC50.
1. CCc1ccc(C2Oc3cc(-c4cnc([C@@H]5CCCN5C(=O)[C@@H](NC(=O)OC)C(C)C)[nH]4)cc(C)c3-c3cc4cc(-c5cnc([C@@H]6CCCN6C(=O)[C@@H](NC(=O)OC)C6CCOCC6)[nH]5)ccc4n32)s1 (single isomer, unassigned) [Compound 560]
2. CCc1c2n(c3ccc(-c4cnc([C@@H]5CCCN5C(=O)[C@@H](NC(=O)OC)C(C)C)[nH]4)cc13)C(c1ccc(Cl)s1)Oc1cc(-c3cnc([C@@H]4CCCN4C(=O)[C@@H](NC(=O)OC)C(C)C)[nH]3)cc(F)c1-2 (some centres unmarked) [Compound 837]
3. COC(=O)N[C@H](C(=O)N1CCC[C@H]1c1ncc(-c2ccc3c(c2)OC(c2ccc(C4CC4)s2)n2c-3cc3cc(-c4cnc([C@@H]5CCCN5C(=O)[C@@H](NC(=O)OC)C(C)C)[nH]4)ccc32)[nH]1)C(C)C (single isomer, unassigned) [Compound 704]
4. CCc1ccc(C2Oc3cc(-c4cnc([C@@H]5CCCN5C(=O)[C@@H](NC(=O)OC)C(C)C)[nH]4)cc(C)c3-c3cc4cc(-c5cnc([C@@H]6CCCN6C(=O)[C@@H](NC(=O)OC)C6CCOC(C)(C)C6)[nH]5)ccc4n32)s1 (single isomer, unassigned) [Compound 547]
5. CCc1ccc(C2Oc3cc(-c4cnc([C@@H]5CCCN5C(=O)[C@@H](NC(=O)OC)C(C)C)[nH]4)cc(C)c3-c3cc4cc(-c5cnc([C@@H]6CCCN6C(=O)C(NC(=O)OC)C6C[C@@H](C)O[C@@H](C)C6)[nH]5)ccc4n32)s1 (single isomer, unassigned) [Compound 543]

Response line:
[1.00, 0.28, 0.46, 0.85, 0.93]

----------
System: HCV replicon 1AY93H
protocolDescription: microbe, parasite or virus in culture
Format: cell-based, Hepatitis C virus (HCV)
conditionInfo: read-out: 1A Y93H IC50; HCV replicon 1A Y93H; Replicon Assay A
Give pIC50 for every item shown.
Answers are plain numbers, as −log10 of the molar value.

Solved entries:
compound: COC(=O)N[C@H](C(=O)N1CCC[C@H]1c1ncc(-c2cc(C)c3c(c2)OC(c2ccc(C4CC4)s2)n2c-3cc3cc(-c4cnc([C@@H]5C[C@H]6C[C@H]6N5C(=O)[C@@H](NC(=O)OC)C5CCOCC5)[nH]4)ccc32)[nH]1)C(C)C (single isomer, unassigned) [Compound 762]
pIC50: 11.30
--
compound: COC(=O)N[C@H](C(=O)N1C[C@H](F)C[C@H]1c1ncc(-c2ccc3c(c2)OC(c2ccc(C)s2)n2c-3cc3cc(-c4cnc([C@@H]5C[C@H]6C[C@H]6N5C(=O)[C@@H](NC(=O)OC)C(C)C)[nH]4)ccc32)[nH]1)C(C)C (single isomer, unassigned) [Compound 708]
pIC50: 10.38
--
compound: COC(=O)N[C@H](C(=O)N1CCC[C@H]1c1ncc(-c2ccc3c(c2)OC(c2ccc(C4CC4)s2)n2c-3c(F)c3cc(-c4cnc([C@@H]5C[C@H]6C[C@H]6N5C(=O)[C@@H](NC(=O)OC)C(C)C)[nH]4)ccc32)[nH]1)C(C)C (single isomer, unassigned) [Compound 613]
pIC50: 10.80

Below are 4 compounds. Give each one its pIC50.
1. COC(=O)N[C@H](C(=O)N1CCC[C@H]1c1ncc(-c2ccc3c(c2)OC(c2cc4ccccc4s2)n2c-3cc3cc(-c4cnc([C@@H]5C[C@@H](F)CN5C(=O)[C@@H](NC(=O)OC)C5CCOCC5)[nH]4)ccc32)[nH]1)C(C)C (single isomer, unassigned) [Compound 627]
2. COC(=O)NC(C(=O)N1[C@@H]2C[C@@H]2C[C@H]1c1ncc(-c2ccc3c(c2)cc2n3C(c3ccc(CC4CC4)s3)Oc3cc(-c4cnc([C@@H]5CCCN5C(=O)[C@@H](NC(=O)OC)C(C)C)[nH]4)cc(F)c3-2)[nH]1)C1CCOC(C)(C)C1 (single isomer, unassigned) [Compound 416]
3. CCc1ccc(C2Oc3cc(-c4cnc([C@@H]5CCCN5C(=O)[C@@H](NC(=O)OC)C(C)C)[nH]4)ccc3-c3c(F)c4cc(-c5cnc([C@@H]6CCCN6C(=O)C(NC(=O)OC)C6C[C@@H](C)O[C@@H](C)C6)[nH]5)ccc4n32)s1 (single isomer, unassigned) [Compound 634]
4. COC(=O)N[C@H](C(=O)N1CCC[C@H]1c1ncc(-c2cc(C)c3c(c2)OC(c2ccc(C4CC4)s2)n2c-3cc3cc(-c4cnc([C@@H]5C[C@H]6C[C@H]6N5C(=O)[C@@H](NC(=O)OC)C5CCOCC5)[nH]4)ccc32)[nH]1)C(C)C (single isomer, unassigned) [Compound 763]

Response line:
10.80
10.06
10.83
9.92

Below are 2 compounds. Give each one its pIC50.
1. COC(=O)N[C@H](C(=O)N1C[C@H](F)C[C@H]1c1ncc(-c2ccc3c(c2)OC(c2ccc(C)s2)n2c-3cc3cc(-c4cnc([C@@H]5C[C@H]6C[C@H]6N5C(=O)[C@@H](NC(=O)OC)C(C)C)[nH]4)ccc32)[nH]1)C(C)C (single isomer, unassigned) [Compound 707]
2. COC(=O)N[C@H](C(=O)N1C2CC2C[C@H]1c1ncc(-c2cc(F)c3c(c2)OC(c2ccc(C4CC4)s2)n2c-3cc3cc(-c4cnc([C@@H]5CCCN5C(=O)[C@@H](NC(=O)OC)C5C[C@@H](C)O[C@@H](C)C5)[nH]4)ccc32)[nH]1)C(C)C (single isomer, unassigned) [Compound 558]

Response line:
1: 10.47; 2: 9.44

Below are 5 compounds. Give each one its pIC50.
1. COC(=O)N[C@H](C(=O)N1CCC[C@H]1c1ncc(-c2cc(F)c3c(c2)OC(c2cc4c(s2)CCC4)n2c-3cc3cc(-c4cnc([C@@H]5CCCN5C(=O)[C@@H](NC(=O)OC)C5CCOCC5)[nH]4)ccc32)[nH]1)C(C)C (single isomer, unassigned) [Compound 621]
2. COC(=O)N[C@H](C(=O)N1CCC[C@H]1c1ncc(-c2cc(C)c3c(c2)OC(c2ccc(C4CC4)s2)n2c-3cc3cc(-c4cnc([C@@H]5C[C@H]6C[C@H]6N5C(=O)[C@@H](NC(=O)OC)C(C)C)[nH]4)ccc32)[nH]1)C(C)C (single isomer, unassigned) [Compound 754]
3. COC(=O)N[C@H](C(=O)N1CCC[C@H]1c1ncc(-c2cc(F)c3c(c2)OC(c2cc4c(s2)CCC4)n2c-3cc3cc(-c4cnc([C@@H]5CCCN5C(=O)[C@@H](NC(=O)OC)C5CCOCC5)[nH]4)ccc32)[nH]1)C(C)C (single isomer, unassigned) [Compound 620]
4. CCc1ccc(C2Oc3cc(-c4cnc([C@@H]5CCCN5C(=O)[C@@H](NC(=O)OC)C(C)C)[nH]4)cc(C)c3-c3cc4cc(-c5cnc([C@@H]6CCCN6C(=O)C(NC(=O)OC)C6C[C@@H](C)O[C@H](C)C6)[nH]5)ccc4n32)s1 (single isomer, unassigned) [Compound 545]
5. COC(=O)N[C@H](C(=O)N1CCC[C@H]1c1ncc(-c2cc(F)c3c(c2)OC(c2cc4c(s2)CCC4)n2c-3cc3cc(-c4cnc([C@@H]5C[C@H]6C[C@H]6N5C(=O)[C@@H](NC(=O)OC)C5C[C@@H](C)O[C@@H](C)C5)[nH]4)ccc32)[nH]1)C(C)C (single isomer, unassigned) [Compound 552]

Response line:
9.97
10.38
11.23
10.62
9.08
